- assaySystem: DCAF1 WD40 domain (residues 1077-1390) (Homo sapiens, UniProt Q9Y4B6)
- Construct: DCAF1 WD40 domain (residues 1077-1390)
- Sequence (Q9Y4B6 1077-1390): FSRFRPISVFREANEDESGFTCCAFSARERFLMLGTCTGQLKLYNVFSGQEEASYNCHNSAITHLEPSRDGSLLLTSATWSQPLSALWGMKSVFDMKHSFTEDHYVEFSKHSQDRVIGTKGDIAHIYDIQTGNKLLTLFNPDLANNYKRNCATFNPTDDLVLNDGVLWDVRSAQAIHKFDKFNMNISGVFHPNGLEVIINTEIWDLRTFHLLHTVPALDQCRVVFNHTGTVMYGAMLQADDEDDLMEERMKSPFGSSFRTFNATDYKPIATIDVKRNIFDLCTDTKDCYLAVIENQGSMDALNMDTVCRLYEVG
- methodDescription: DCAF1 binding assay by SPR (Biacore 8K+), DCAF1-3 KD
- appliedConditions: 25 °C, read-out: DCAF1-3 SPR (KD)
resultType: Kd

[
  {
    "compound": "Cc1n[nH]c(C(F)(F)F)c1C(=O)N[C@@H](CC(N)=O)c1ccccc1",
    "Kd": "> 200 µM"
  },
  {
    "compound": "Cc1c(F)ccc(F)c1-c1c(C(=O)N[C@@H](CC(N)=O)c2cccc(Cl)c2)c[nH]c1C(=O)c1cccc(-c2ccccc2)c1",
    "Kd": "< 10 µM"
  },
  {
    "compound": "Cc1n[nH]cc1C(=O)N[C@@H](CC(N)=O)c1cccc(Cl)c1",
    "Kd": "> 200 µM"
  }
]

Count: 5. Required value per item: Kd.
1. C=CC(=O)NC#Cc1n[nH]cc1C(=O)N[C@@H](CC(N)=O)c1cccc(Cl)c1
2. C[C@H](NC(=O)c1c[nH]nc1-c1ccccc1F)c1cccc(Cl)c1
3. C=CC(=O)N1CCCC(N(C)c2ccnc(N[C@@H]3CCCN(c4cccc(F)c4)C3)c2)C1 (stereo partly drawn)
4. C=CC(=O)N1CCC2(CC1)CCN(c1ccnc(N[C@@H]3CCCN(c4cccc(F)c4)C3)c1)CC2
5. Cc1cccc(F)c1-c1[nH]ncc1C(=O)N[C@H](CC(N)=O)c1cc(F)cc(Cl)c1

1. > 200 µM
2. 10 to 100 µM
3. > 200 µM
4. 10 to 100 µM
5. < 10 µM

* * *

- assaySystem: DCAF1 WD40 domain (residues 1077-1390) (Homo sapiens)
- Construct: DCAF1 WD40 domain (residues 1077-1390)
- methodDescription: DCAF1 binding assay by SPR (Biacore 8K+), DCAF1-3 KD
- appliedConditions: 25 °C, read-out: DCAF1-3 SPR (KD)
Would you mind telling me the reported Kd of each entry?

[
  {
    "molecule": "Cc1c(F)ccc(F)c1-c1c(C(=O)N[C@@H](CC(N)=O)c2cccc(Cl)c2)c[nH]c1C(=O)c1cccc(C(C)C)c1",
    "Kd": "< 10 µM"
  },
  {
    "molecule": "FC(F)(F)Oc1ccc(N2CCC[C@@H](Nc3cc(N4CCOCC4)ccn3)C2)nc1",
    "Kd": "10 to 100 µM"
  },
  {
    "molecule": "c1cc2ccc(N3CCC[C@@H](Nc4cc(N5CCOCC5)ncn4)C3)cc2cn1",
    "Kd": "> 200 µM"
  }
]

Provide Kd values for the following items, in order.
1. C[C@H]1CC[C@H](O)CN1c1ccnc(N2CC[C@@H]3[C@H]2CCCN3c2cccc(F)c2)c1
2. Cc1c(F)ccc(F)c1-c1c(C(=O)N[C@@H](CC(N)=O)c2cccc(Cl)c2)cn(C)c1C(=O)c1ccc(OCCOCCOCCOCCOCCOCCN)cc1
3. C=CC(=O)N1CC[C@H]1C(=O)N1CCN(c2ccnc(N[C@@H]3CCCN(c4cccc(F)c4)C3)c2)CC1
4. NC(=O)Cc1ccc(N2CCC[C@@H](Nc3cc(N4CCOCC4)ccn3)C2)cc1
5. C=CC(=O)n1ccc(-c2n[nH]cc2C(=O)N[C@@H](CC(N)=O)c2cccc(Cl)c2)n1
6. OCCC[C@H]1C[C@@H]2[C@H](CCCN2c2cccc(F)c2)N1c1cc(N2CCCCC2)ccn1
7. CC(c1cc(N2CCOCC2)ccn1)(C1CCCN(c2cccc(F)c2)C1)C(F)(F)F (centres unmarked)

1: < 10 µM; 2: < 10 µM; 3: > 200 µM; 4: > 200 µM; 5: > 200 µM; 6: 10 to 100 µM; 7: > 200 µM

* * *

- assaySystem: DCAF1 WD40 domain (residues 1077-1390) (Homo sapiens)
- Construct: DCAF1 WD40 domain (residues 1077-1390)
- methodDescription: DCAF1 binding assay by SPR (Biacore 8K+), DCAF1-3 KD
- appliedConditions: 25 °C, read-out: DCAF1-3 SPR (KD)
resultType: Kd

Recorded results for 6 molecules are shown here.
[
  {
    "molecule": "Fc1cccc(N2CC[C@@H]3CCCc4ncc(N5CCOCC5)cc4N[C@H]3C2)c1",
    "Kd": "> 200 µM"
  },
  {
    "molecule": "CCC1CCCN(c2ccnc(N[C@@H]3CCCN(c4cccc(F)c4)C3)c2)C1 (stereo partly drawn)",
    "Kd": "10 to 100 µM"
  },
  {
    "molecule": "Cc1sc2c(c1C)C(c1ccc(Cl)cc1)=N[C@@H](CC(=O)NCCCCCCCCCCCCCCC1CCN(c3ccnc(N4CC[C@@H]5[C@H]4CCCN5c4cccc(F)c4)c3)CC1)c1nnc(C)n1-2",
    "Kd": "> 200 µM"
  },
  {
    "molecule": "NC(=O)C[C@H](NC(=O)c1cn[nH]c1-c1cc(CC(F)F)ccc1F)c1cccc(Cl)c1",
    "Kd": "> 200 µM"
  },
  {
    "molecule": "COc1ncccc1-c1[nH]ncc1C(=O)N[C@@H](CC(N)=O)c1cccc(Cl)c1",
    "Kd": "> 200 µM"
  },
  {
    "molecule": "C=CC(=O)N1CCC(c2n[nH]cc2C(=O)N[C@@H](CC(N)=O)c2cccc(Cl)c2)CC1",
    "Kd": "> 200 µM"
  }
]

Working through the 3 molecules below one at a time, give Kd for each.
1. Cc1cccc(-c2[nH]ncc2C(=O)N[C@@H](CC(N)=O)c2cccc(Cl)c2)c1F
2. NC(=O)C[C@H](NC(=O)c1c[nH]nc1-c1cc(-c2nnn[nH]2)ccc1F)c1cccc(Cl)c1
3. NC(=O)C[C@H](NC(=O)c1cn[nH]c1-c1ccccc1F)c1ccccc1Br

["10 to 100 µM", "> 200 µM", "10 to 100 µM"]

* * *

- assaySystem: DCAF1 WD40 domain (residues 1077-1390) (Homo sapiens, UniProt Q9Y4B6)
- Construct: DCAF1 WD40 domain (residues 1077-1390)
- methodDescription: DCAF1 binding assay by SPR (Biacore 8K+), DCAF1-3 KD
- appliedConditions: 25 °C, read-out: DCAF1-3 SPR (KD)
pKd: −log10 of the molar value.
resultType: pKd

Field: example entries. Status: answers known.
[
  {
    "compound": "Cc1cccc(F)c1-c1c(C(=O)N[C@@H](CC(N)=O)c2cccc(Cl)c2)c[nH]c1C(=O)c1ncccn1",
    "assaySystem": "DCAF1 WD40 domain (residues 1077-1390) (Homo sapiens, UniProt Q9Y4B6)",
    "resultType": "pKd",
    "assayValue": "> 5.00"
  },
  {
    "compound": "NC(=O)C[C@H](NC(=O)c1c[nH]nc1-c1cc(F)ccc1F)c1cccc(Cl)c1 [I-513]",
    "assaySystem": "DCAF1 WD40 domain (residues 1077-1390) (Homo sapiens, UniProt Q9Y4B6)",
    "resultType": "pKd",
    "assayValue": "> 5.00"
  },
  {
    "compound": "Cc1c(F)ccc(F)c1-c1c(C(=O)N[C@@H](CC(N)=O)c2cccc(Cl)c2)csc1C#N",
    "assaySystem": "DCAF1 WD40 domain (residues 1077-1390) (Homo sapiens, UniProt Q9Y4B6)",
    "resultType": "pKd",
    "assayValue": "> 5.00"
  }
]

Consider the record given below.
Lookup result for NC(=O)C[C@H](NC(=O)c1cn[nH]c1[C@H]1CCCCO1)c1cccc(Cl)c1 ; measured pKd: < 3.70

* * *

- assaySystem: DCAF1 WD40 domain (residues 1077-1390) (Homo sapiens)
- Construct: DCAF1 WD40 domain (residues 1077-1390)
- methodDescription: DCAF1 binding assay by SPR (Biacore 8K+), DCAF1-3 KD
- appliedConditions: 25 °C, read-out: DCAF1-3 SPR (KD)
pKd: −log10 of the molar value.
resultType: pKd

Reference set (3 entries):
[
  {
    "compound": "Oc1ccc(C2CCCCC2)cc1N[C@@H]1CCCN(c2cccc(F)c2)C1",
    "assaySystem": "DCAF1 WD40 domain (residues 1077-1390) (Homo sapiens)",
    "pKd": "4.00 to 5.00"
  },
  {
    "compound": "Cc1cccc(F)c1-c1[nH]ncc1C(=O)N[C@H](CC(N)=O)c1cc(Cl)cc(Cl)c1 [I-736]",
    "assaySystem": "DCAF1 WD40 domain (residues 1077-1390) (Homo sapiens)",
    "pKd": "> 5.00"
  },
  {
    "compound": "Fc1cccc(N2CCC[C@@H]3[C@H]2CCN3c2cc(N3CC4CCC(C4)C3)ccn2)c1",
    "assaySystem": "DCAF1 WD40 domain (residues 1077-1390) (Homo sapiens)",
    "pKd": "> 5.00"
  }
]

# input for lookup
Hey, DCAF1 WD40 domain (residues 1077-1390) (Homo sapiens) data for Fc1cccc(N2CCC[C@@H](Nc3ncc(N4CCOCC4)s3)C2)c1 : pKd came out at < 3.70
